- target-of-assay: GluR7a (Rattus norvegicus)
- Construct: expressed in transfected cells; host or cells: HEK-293-T/17
- Sequence (P42264 32-919): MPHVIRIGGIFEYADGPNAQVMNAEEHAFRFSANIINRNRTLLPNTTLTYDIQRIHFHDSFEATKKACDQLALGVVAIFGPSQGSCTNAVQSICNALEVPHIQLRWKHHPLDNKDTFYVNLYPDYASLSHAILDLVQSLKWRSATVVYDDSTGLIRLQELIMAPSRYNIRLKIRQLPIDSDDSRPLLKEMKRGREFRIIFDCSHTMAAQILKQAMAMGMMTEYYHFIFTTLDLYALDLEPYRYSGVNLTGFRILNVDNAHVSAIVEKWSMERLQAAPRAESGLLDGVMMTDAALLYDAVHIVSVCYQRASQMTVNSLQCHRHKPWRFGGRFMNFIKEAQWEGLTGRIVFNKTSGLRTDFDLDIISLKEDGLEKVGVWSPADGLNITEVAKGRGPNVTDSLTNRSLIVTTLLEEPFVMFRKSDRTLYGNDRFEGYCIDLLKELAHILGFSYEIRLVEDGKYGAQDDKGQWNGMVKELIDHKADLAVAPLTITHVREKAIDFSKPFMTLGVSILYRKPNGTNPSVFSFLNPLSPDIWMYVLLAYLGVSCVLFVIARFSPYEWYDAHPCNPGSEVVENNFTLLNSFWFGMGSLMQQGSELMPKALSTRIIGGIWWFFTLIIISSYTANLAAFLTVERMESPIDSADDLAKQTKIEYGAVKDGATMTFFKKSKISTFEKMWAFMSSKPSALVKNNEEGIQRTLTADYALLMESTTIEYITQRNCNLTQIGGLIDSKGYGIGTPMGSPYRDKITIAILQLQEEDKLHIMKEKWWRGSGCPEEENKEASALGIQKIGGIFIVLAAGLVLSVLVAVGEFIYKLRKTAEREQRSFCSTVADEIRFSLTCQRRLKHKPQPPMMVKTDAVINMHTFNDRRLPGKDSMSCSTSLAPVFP
- protocol-text: Radioligand binding ([3H]kainate displacement), HEK-293-T/17 membranes, Example 2
- recorded-conditions: [3H]kainate displacement; Cheng-Prusoff; read-out: Ki GluR7a
observed-property: Ki

For N[C@@H](C[C@@]1(C(=O)O)CC2OCC(O)C(O)C2O1)C(=O)O (single isomer, unassigned) [4-epi-neoDH, 4-epi-neodysiherbaine] the compound record lists Ki as > 100 µM

For NC(CC1(C(=O)O)CC2OCC(F)C(O)C2O1)C(=O)O (stereo not drawn) [9-F-8-epi-neoDH] the compound record lists Ki as > 100 µM

For N[C@@H](C[C@@]1(C(=O)O)CC2OCC(O)C(O)C2O1)C(=O)O (single isomer, unassigned) [2,4-epi-neoDH, 2,4-epi-neodysiherbaine] the compound record lists Ki as > 100 µM

---

- target-of-assay: GluR5-2a (Rattus norvegicus, UniProt P22756, DEL402-416)
- Construct: expressed in transfected cells; host or cells: HEK-293-T/17
- protocol-text: Radioligand binding ([3H]kainate displacement), HEK-293-T/17 membranes, Example 2
- recorded-conditions: Ki GluR5-2a, Cheng-Prusoff
observed-property: pKi
The value called pKi is obtained by taking minus log10 of the concentration in mol/L.

For N[C@@H](C[C@]1(C(=O)O)C[C@H]2OC[C@@H](O)C[C@H]2O1)C(=O)O [8-deoxy-neoDH] the compound record lists pKi as 8.82

---

- target-of-assay: GluR2 (Rattus norvegicus)
- Construct: expressed in transfected cells; host or cells: COS-7 or HEK-T/17
- Sequence (P19491 22-883 isoform P19491-2 limits assumed): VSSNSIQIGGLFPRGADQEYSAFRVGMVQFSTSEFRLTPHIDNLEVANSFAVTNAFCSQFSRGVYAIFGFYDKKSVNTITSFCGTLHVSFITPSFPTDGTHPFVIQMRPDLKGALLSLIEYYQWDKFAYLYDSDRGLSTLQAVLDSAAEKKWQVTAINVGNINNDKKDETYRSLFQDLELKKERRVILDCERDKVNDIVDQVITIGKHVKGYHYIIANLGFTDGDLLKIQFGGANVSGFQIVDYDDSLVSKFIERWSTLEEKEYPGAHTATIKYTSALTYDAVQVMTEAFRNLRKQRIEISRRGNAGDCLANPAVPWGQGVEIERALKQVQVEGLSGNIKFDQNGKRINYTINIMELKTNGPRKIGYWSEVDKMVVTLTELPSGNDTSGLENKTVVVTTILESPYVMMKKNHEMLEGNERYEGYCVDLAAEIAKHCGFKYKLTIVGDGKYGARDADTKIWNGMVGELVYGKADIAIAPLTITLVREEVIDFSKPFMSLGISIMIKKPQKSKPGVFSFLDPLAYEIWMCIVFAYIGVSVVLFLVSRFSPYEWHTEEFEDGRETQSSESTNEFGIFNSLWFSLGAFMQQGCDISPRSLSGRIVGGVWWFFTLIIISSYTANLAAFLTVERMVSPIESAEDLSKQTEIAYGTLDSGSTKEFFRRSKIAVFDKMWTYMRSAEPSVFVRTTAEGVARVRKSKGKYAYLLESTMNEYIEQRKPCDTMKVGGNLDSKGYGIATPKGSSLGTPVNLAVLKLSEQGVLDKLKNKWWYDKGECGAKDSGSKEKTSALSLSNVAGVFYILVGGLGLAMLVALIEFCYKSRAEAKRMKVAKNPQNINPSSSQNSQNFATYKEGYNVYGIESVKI
- protocol-text: Radioligand displacement ([3H]AMPA), Example 1
- Format: binding
- recorded-conditions: Tables 1-2; read-out: GluR2 binding affinity (displacement of [3H]AMPA)
pKi: −log10 of the molar value.
observed-property: pKi

For NC(CC1(C(=O)O)CC2OCC(O)C(O)C2O1)C(=O)O (stereo not drawn) [8-epi-neoDH, 8-epi-neodysiherbaine] the compound record lists pKi as 4.64

For NC(CC1(C(=O)O)CC2OCC(O)C(O)C2O1)C(=O)O (stereo not drawn) [9-epi-neoDH, 9-epi-neodysiherbaine] the compound record lists pKi as < 4.00

For "N[C@@H](C[C@]1(C(=O)O)C[C@H]2OCC[C@@H](O)[C@H]2O1)C(=O)O" the compound record lists pKi as < 4.00

For NC(CC1(C(=O)O)CC2OCC(O)C(O)C2O1)C(=O)O (stereo not drawn) [8,9-epi-neoDH, 8,9-epi-neodysiherbaine] the compound record lists pKi as < 4.00

---

- target-of-assay: GluR1(i) (Rattus norvegicus)
- Construct: expressed in transfected cells; host or cells: HEK-293-T/17
- protocol-text: Radioligand binding ([3H]AMPA displacement), HEK-293-T/17 membranes, Example 2
- recorded-conditions: Ki GluR1(i), Cheng-Prusoff
observed-property: Ki

Value (Ki, GluR1(i) (Rattus norvegicus)) for record N[C@@H](C[C@]1(C(=O)O)C[C@H]2OC[C@@H](O)C[C@H]2O1)C(=O)O [8-deoxy-neoDH] = > 100 µM

---

- target-of-assay: GluR2(i) (Rattus norvegicus, UniProt P19491)
- Construct: expressed in transfected cells; host or cells: HEK-293-T/17
- Sequence (P19491 22-883 isoform P19491-2 limits assumed): as above
- protocol-text: Radioligand binding ([3H]AMPA displacement), HEK-293-T/17 membranes, Example 2
- recorded-conditions: Ki GluR2(i), Cheng-Prusoff
pKi: −log10 of the molar value.
observed-property: pKi

Value (pKi, GluR2(i) (Rattus norvegicus, UniProt P19491)) for record N[C@@H](C[C@]1(C(=O)O)C[C@H]2OC[C@@H](O)C[C@H]2O1)C(=O)O [8-deoxy-neoDH] = < 4.00

Reference for the values: patent US7973075B2
